Reference for the values: the RNAGym collection of RNA variant scans (doi:10.1073/pnas.2313332121)

B1: TPR t1 (parent)
chain: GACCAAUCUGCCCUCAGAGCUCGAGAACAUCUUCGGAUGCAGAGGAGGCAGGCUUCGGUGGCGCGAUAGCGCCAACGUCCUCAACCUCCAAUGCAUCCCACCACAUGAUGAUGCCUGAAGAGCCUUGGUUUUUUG

- Variants of: B1
- ASSAY_PROTOCOL: polymerase ribozyme fitness, log enrichment relative to wild type (log ratio); higher = more active; in vitro selection for triplet polymerase activity
Lab note: compare polymerase ribozyme fitness (log ratio) against -2. Equal or greater, write true. Smaller, write false.

* C8A A74G | true
* C8U G35A | false
* G35A C88U A121U | true
* A18C C49U C72G | false

Q) Item G61C G63A with polymerase ribozyme fitness (log ratio) of -2 or above?
A) false

Q) Item U32C G52U G77U C79A A90G C115U U126A with polymerase ribozyme fitness (log ratio) of -2 or above?
A) false

Q) Item C104U U106A U109A C114U C123U with polymerase ribozyme fitness (log ratio) of -2 or above?
A) false

Q) Item G42A G45C G61A A105C C115U with polymerase ribozyme fitness (log ratio) of -2 or above?
A) false
